# ASSAY OVERVIEW: in vitro
# MEASUREMENT CONDITIONS: human, hela cells, % viability
compounds and their reported viability at 28.5 h, 10 µM
// note: answer is a bare numeric in %

Some entries whose results are on file:
- COMPOUND: "CN1CCN(c2nc(NS(=O)(=O)c3ccc(C#N)cc3)cc3ccccc23)CC1 [CBK002977C]"
  viability at 28.5 h, 10 µM [%]: 94.8
- COMPOUND: "O=C(Nc1cccc2ccccc12)N1CCN(Cc2ccc3c(c2)OCO3)CC1 [CBK074747]"
  viability at 28.5 h, 10 µM [%]: 89
- COMPOUND: "Cc1csc(NC(=O)CN2CCOC(c3ccc(F)cc3)C2)n1 (stereo not shown) [CBK304703]"
  viability at 28.5 h, 10 µM [%]: 116
- COMPOUND: "O=C(Nc1cc(N2CCNCC2)ncn1)c1cnc2ccccc2c1 [CBK004209T]"
  viability at 28.5 h, 10 µM [%]: 80.5
- COMPOUND: "CN(C)c1ccc(/C=N/N=C2\\NC(=O)CS2)cc1 [CBK019273]"
  viability at 28.5 h, 10 µM [%]: 60.6

Incoming: Entry COc1ccc([N+](=O)[O-])c(Oc2cccc(C(F)(F)F)c2)n1 [CBK002796] has what viability at 28.5 h, 10 µM?
Outgoing: 94.5

Incoming: Item O=C(O)CCC(=O)Nc1ccc2c(c1)Cc1ccccc1-2 [CBK286611] has what recorded viability at 28.5 h, 10 µM?
Outgoing: 94.9

Incoming: Returns the measured viability at 28.5 h, 10 µM for the input compound. Input: CCc1ccc(C(O)CNC2CCN(C3CCCCC3)CC2)cc1 (stereo not shown) [CBK304604]
Outgoing: 88.2

Incoming: For S=C(Cc1csc2ccccc12)NC1CCCCC1 [CBK023515] , what is its reported viability at 28.5 h, 10 µM?
Outgoing: 88.7

Incoming: Could you share which viability at 28.5 h, 10 µM value was measured for C[C@@H]1CC(=O)CCC1NC(=O)c1ccccc1 (stereo partly shown) [CBK017832] ?
Outgoing: 88.4
